- assay-overview: Solubility of compound 1 crystalline free base in different solvents, by HPLC
- Type: physicochemical
- test-parameters: organic solvent or mixture, thermodynamic from solid; solvent Ethanol; crystalline free base slurry, room temperature, 4 day solution; read-out: Conc. FB (solubility)
measured-attribute: solubility at 4 day
The answer should read as a number with its unit following.

# get_value(readout='solubility at 4 day', item= C[C@@H](c1ccc2ncccc2c1)c1nnc2sc(-c3cnn(C)c3)nn12 )
42.1 mg/mL

====

- assay-overview: Solubility of compound 1 crystalline free base in different solvents, by HPLC
- Type: physicochemical
- test-parameters: organic solvent or mixture, thermodynamic from solid; solvent 2-Methyl THF; crystalline free base slurry, room temperature, 4 day solution; read-out: Conc. FB (solubility)
measured-attribute: solubility at 4 day (µg/mL)
// note: answer is a bare numeric in µg/mL

# get_value(readout='solubility at 4 day', item= C[C@@H](c1ccc2ncccc2c1)c1nnc2sc(-c3cnn(C)c3)nn12 )
9030

====

- assay-overview: Solubility of compound 1 crystalline free base in different solvents, by HPLC
- Format: physicochemical
- test-parameters: organic solvent or mixture, thermodynamic from solid; solvent Cumene; crystalline free base slurry, room temperature, 4 day solution; read-out: Conc. FB (solubility)
measured-attribute: solubility at 4 day (µg/mL)
// note: answer is a bare numeric in µg/mL

# get_value(readout='solubility at 4 day', item= C[C@@H](c1ccc2ncccc2c1)c1nnc2sc(-c3cnn(C)c3)nn12 )
2520

====

- assay-overview: Solubility of compound 1 crystalline free base in different solvents, by HPLC
- Type: physicochemical
- test-parameters: organic solvent or mixture, thermodynamic from solid; solvent Diiodomethane; crystalline free base slurry, room temperature, 4 day solution; read-out: Conc. FB (solubility)
measured-attribute: solubility at 4 day (mg/mL)
// note: answer is a bare numeric in mg/mL

# get_value(readout='solubility at 4 day', item= C[C@@H](c1ccc2ncccc2c1)c1nnc2sc(-c3cnn(C)c3)nn12 [Compound 1] )
81
